test: LC/MS of blood plasma sample: number of times of freezing and thawing (Table F); type: physicochemical, human; conditions: detection intensity, freezing and thawing 4 times vs 2 times

Molecule | Increase or decrease
NCCCC(=O)O | Increase
Nc1ccn([C@@H]2O[C@H](COP(=O)(O)O)[C@@H](O)[C@H]2O)c(=O)n1 [Cytidine monophosphate] | Increase
N[C@@H](Cc1ccc(O)c(O)c1)C(=O)O | Decrease
CN(CC(=O)O)C(=N)N | Increase
N[C@@H](CCC(=O)N[C@@H](CS)C(=O)O)C(=O)O | Increase
O=C(O)CC(O)C(=O)O (stereo not drawn) | Increase
C[S+](CC[C@H](N)C(=O)[O-])C[C@H]1O[C@@H](n2cnc3c(N)ncnc32)[C@H](O)[C@@H]1O (stereo partly drawn) | Increase
N[C@@H](CS)C(=O)O | Increase
Nc1ncnc2nc[nH]c12 | Increase
O=c1[nH]c(=O)c2[nH]cnc2[nH]1 | Increase
Nc1ncnc2c1ncn2[C@@H]1O[C@H](COP(=O)(O)O)[C@@H](O)[C@H]1O [Adenosine monophosphate] | Increase
NC(=O)NC1NC(=O)NC1=O (stereo not drawn) | Decrease
Nc1ncnc2c1ncn2[C@@H]1O[C@H](CO)[C@@H](O)[C@H]1O | Decrease
Nc1ncnc2c1ncn2[C@@H]1O[C@H](CSCC[C@H](N)C(=O)O)[C@@H](O)[C@H]1O | Increase
N=C(N)NCCC[C@H](N)C(=O)O | Increase
N=C(N)NCCC[C@H](NC(CC(=O)O)C(=O)O)C(=O)O (stereo partly drawn) | Increase
N[C@@H](CCSC[C@H](N)C(=O)O)C(=O)O | Increase
O=C(O)CCC(=O)O | Increase

---

assay: LC/MS of serum sample: time from blood collection to centrifugation (Table J); assay type: physicochemical, human; settings: after 4 hours from blood collection to centrifugation; detection intensity relative to 1 at 15 minutes
Quantity measured: Rate of increase or decrease

Molecule | Quantity measured | Recorded measurement
Nc1ncnc2c1ncn2[C@@H]1O[C@H](CO)[C@@H](O)[C@H]1O | Rate of increase or decrease | 0.29
N[C@@H](CCC(=O)O)C(=O)O | Rate of increase or decrease | 3.09
Nc1ncnc2c1ncn2[C@@H]1O[C@H](CSCC[C@H](N)C(=O)O)[C@@H](O)[C@H]1O | Rate of increase or decrease | 2.82
O=c1[nH]c(=O)c2[nH]cnc2[nH]1 | Rate of increase or decrease | 1.92
O=c1ccn([C@@H]2O[C@H](CO)[C@@H](O)[C@H]2O)c(=O)[nH]1 | Rate of increase or decrease | 1.42
O=c1[nH]cnc2nc[nH]c12 | Rate of increase or decrease | 2.24
Nc1nc2c(ncn2[C@@H]2O[C@H](CO)[C@@H](O)[C@H]2O)c(=O)[nH]1 | Rate of increase or decrease | 0.08
O=C(O)CC(O)C(=O)O (centres unmarked) | Rate of increase or decrease | 1.33
NC(=O)c1cccnc1 [Nicotinamide] | Rate of increase or decrease | 2.16
NCCC(=O)N[C@@H](Cc1cnc[nH]1)C(=O)O | Rate of increase or decrease | 2.83
OC[C@H]1O[C@@H](n2cnc3c(O)ncnc32)[C@H](O)[C@@H]1O | Rate of increase or decrease | 0.17
Nc1ccn([C@@H]2O[C@H](CO)[C@@H](O)[C@H]2O)c(=O)n1 | Rate of increase or decrease | 0.62
N[C@@H](Cc1ccc(O)c(O)c1)C(=O)O | Rate of increase or decrease | 0.56
N[C@@H](CC(=O)O)C(=O)O | Rate of increase or decrease | 2.10
